Consider the following compounds; for each one, report its AUC 0→t in product C group, increased to % compared to that in product A or B groups.
Test: Rat in vivo pharmacokinetics study after oral administration of product A, B or C
Set-up: species or system Male Sprague-Dawley (SD) rats; concentration or dose not given beside the values
Details: rats, oral; product C versus product A or B
Give bare numbers, in %.

                               smilesrecord  measuredvalue
0  COC(=O)C1=CO[C@@H](O[C@@H]2O[C@H](CO)[C@@H](O)[C@H](O)[C@H]2O)[C@@H]2[C@@H](C)[C@@H](O)C[C@H]12            121
1  O=C(/C=C/c1ccc(O)c(O)c1)O[C@@H]1C[C@](O)(C(=O)O)C[C@@H](O)[C@H]1O            215

# next compound below
What the record says about O=c1c(-c2ccc(O)cc2)coc2cc(O[C@@H]3O[C@H](CO)[C@@H](O)[C@H](O)[C@H]3O)cc(O)c12 : AUC 0→t in product C group, increased to % compared to that in product A or B groups is 131
